- Assay system: T1, human MIC-1 receptor (hGFRAL, GDNF family receptor alpha like), full length (human, UniProt Q6UXV0 19-394)
- T1 construct: whole, on cells
- T1 sequence (looked up): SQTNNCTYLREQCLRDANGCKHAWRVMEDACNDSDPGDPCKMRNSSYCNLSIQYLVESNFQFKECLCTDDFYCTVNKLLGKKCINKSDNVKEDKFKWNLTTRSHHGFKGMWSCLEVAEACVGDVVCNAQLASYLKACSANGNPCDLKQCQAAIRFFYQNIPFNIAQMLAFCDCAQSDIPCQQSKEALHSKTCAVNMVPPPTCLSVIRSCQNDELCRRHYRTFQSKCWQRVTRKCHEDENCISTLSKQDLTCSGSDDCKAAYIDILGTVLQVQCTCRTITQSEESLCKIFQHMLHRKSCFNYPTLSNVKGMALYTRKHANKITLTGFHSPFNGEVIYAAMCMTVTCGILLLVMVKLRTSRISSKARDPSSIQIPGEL
- Test method notes: SPA: displacement of 50 pM human [125I]-MIC-1 from BHK21-hGFRAL-IRES-hRET cell membranes
Overview of recorded IC50 for various binders
Attribute measured: IC50

{"columns": ["Binder", "Endpoint value"],
 "data": [
  ["Compound 21 (ligand, Cys-29 (residue 4 of SEQ ID NO: 288): S{Beta}-[2-[2-[[2-[2-[2-[[2-[2-[2-[[(4S)-4-carboxy-4-[16-(1H-tetrazol-5-yl)hexadecanoylamino]butanoyl]amino]ethoxy]ethoxy]acetyl]amino]ethoxy]ethoxy]acetyl]amino]ethylamino]-2-oxoethyl]Cys (protractor of Example 10.10), homodimer, two protractors per dimer) SEPCTSGSETPGTSESATPESGPGTSTEPSEGARGDHCPLGPGRCCRLHTVRASLEDLGWADWVLSPREVQVTMCIGACPSQFRAANMHAQIKTSLHRLKPDTVPAPCCVPASYNPMVLIQKTDTGVSLQTYDDLLAKDCHCI", "1 nM"],
  ["SEPCTSGSETPGTSESATPESGPGTSTEPSEG-MIC-1, des-N3, M57L, M86L (Cys mutation A(-29)C) (ligand, homodimer; no protractor) SEPCTSGSETPGTSESATPESGPGTSTEPSEGARGDHCPLGPGRCCRLHTVRASLEDLGWADWVLSPREVQVTMCIGACPSQFRAANLHAQIKTSLHRLKPDTVPAPCCVPASYNPLVLIQKTDTGVSLQTYDDLLAKDCHCI", "80 nM"],
  ["SEPATSGSETPGTSESATPESGPGTSTEPSEG-MIC-1-des-N3 (M57L, M86L) (ligand, homodimer; no protractor) SEPATSGSETPGTSESATPESGPGTSTEPSEGARGDHCPLGPGRCCRLHTVRASLEDLGWADWVLSPREVQVTMCIGACPSQFRAANLHAQIKTSLHRLKPDTVPAPCCVPASYNPLVLIQKTDTGVSLQTYDDLLAKDCHCI", "119 nM"],
  ["Macrophage Inhibitory Cytokine-1 (MIC-1), human wild type, monomer sequence SEQ ID NO:1 (ligand, covalently linked homodimer; 112 amino acid monomer = residues 197-308 of the precursor; also called wtMIC-1) ARNGDHCPLGPGRCCRLHTVRASLEDLGWADWVLSPREVQVTMCIGACPSQFRAANMHAQIKTSLHRLKPDTVPAPCCVPASYNPMVLIQKTDTGVSLQTYDDLLAKDCHCI", "0.67 nM"]
]}
